# assay-procedure: PK studies of formulations, plasma by HPLC-MS/MS
# Format: in vivo
# experimental-context: bovine, plasma, sc, 1.25 mg/kg, FormH62.5 (DMA, DMSO, 2-pyrrolidone), Cattle, 1.25 mg/kg, read-out: Cmax
property-name: Cmax
Field note: include the unit after the figure.

Looking for the measured Cmax of CCOc1cc(NCCNC(=O)/C=C/C(F)(F)F)ccn1 [Compound 4] , can you help?
42.1 ng/mL

###

# assay-procedure: Quantitative determination of solubility of compound 5 (UPLC)
# Format: physicochemical
# experimental-context: aqueous acid solution (350 mM citric acid in water), 25 °C, aqueous buffer, thermodynamic from solid, Citric acid 350 mM in water, read-out: Solubility T = 1 Day Average
property-name: solubility at 1 day (mg/mL)
# value in mg/mL; strip the unit string

Given the entry `COc1cc(NCCNC(=O)/C=C/C(C)(F)F)ccn1` , report its measured solubility at 1 day.
149

###

# assay-procedure: PK studies of formulations, plasma by HPLC-MS/MS
# Format: in vivo
# experimental-context: bovine, plasma, sc, 1.25 mg/kg, FormK62.5 (2-pyrrolidone, Transcutol P, ethyl lactate), Cattle, 1.25 mg/kg, read-out: Tmax
property-name: Tmax

Query: Tmax; subject: CCOc1cc(NCCNC(=O)/C=C/C(F)(F)F)ccn1 [Compound 4]
49.8 min

###

# assay-procedure: PK studies of formulations, plasma by HPLC-MS/MS
# Assay type: in vivo
# experimental-context: bovine, plasma, sc, 1 mg/kg, pH 4.4, FormO60 (FormO type: L-tartaric acid, NaOH to pH 4.4, water), Cattle, 1 mg/kg, read-out: Tmax
property-name: Tmax (min)
Express the result in min but write the number alone.

For `CCOc1cc(NCCNC(=O)/C=C/C(F)(F)F)ccn1` , what is its reported Tmax?
15

###

# assay-procedure: PK studies of formulations, plasma by HPLC-MS/MS
# Type: in vivo
# experimental-context: bovine, plasma, sc, 1.25 mg/kg, FormE62.5 (polyethylene glycol 300, ethyl alcohol 96%, water), Cattle, 1.25 mg/kg, read-out: Tmax
# Method: The following formulations were prepared and administered to animals. Blood samples were collected at pre-defined time points and the amount of compound present in plasma at the time of sampling was determined by HPLC-MS/MS. Pharmacokinetic parameters were then calculated: Cmax, Tmax, Tlast, AUC. [table]
property-name: Tmax (min)
Reply with just the number (in min).

What does the record list as Tmax for `CCOc1cc(NCCNC(=O)/C=C/C(F)(F)F)ccn1` ?
25.2

###

# assay-procedure: Stability tests of solutions of compound 4 with equimolar acids in water
# Type: physicochemical
# experimental-context: water with equimolar acid, water, thermodynamic from solid, equimolar isethionic acid in water
property-name: solubility

Field request: solubility | item: `CCOc1cc(NCCNC(=O)/C=C/C(F)(F)F)ccn1`
> 200 mg/mL

###

# assay-procedure: Quantitative determination of solubility of compound 5 (UPLC)
# Type: physicochemical
# experimental-context: aqueous acid solution (350 mM fumaric acid in water), 25 °C, aqueous buffer, thermodynamic from solid, Fumaric acid 350 mM in water, read-out: Solubility T = 3 Days
property-name: solubility at 3 days
Respond with a number, then the unit of measure.

Which value of solubility at 3 days has been reported for `COc1cc(NCCNC(=O)/C=C/C(C)(F)F)ccn1` in the records?
140 mg/mL
